Attribution: ChEMBL document CHEMBL5729330

# Assay Target: Galectin-3 (Homo sapiens)
# Sequence (P17931 whole entry): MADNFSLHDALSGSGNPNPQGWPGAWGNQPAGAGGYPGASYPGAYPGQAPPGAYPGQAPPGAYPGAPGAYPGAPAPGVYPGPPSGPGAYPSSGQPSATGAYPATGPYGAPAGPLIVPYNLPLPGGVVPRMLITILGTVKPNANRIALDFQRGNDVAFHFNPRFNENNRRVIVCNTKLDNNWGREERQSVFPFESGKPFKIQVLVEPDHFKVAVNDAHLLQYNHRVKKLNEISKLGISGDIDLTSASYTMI
# Assay Summary: Fluorescence Anisotropy Assay: The affinity of Example 1-71 for galectins were determined by a fluorescence anisotropy assay where the compound was used as an inhibitor of the interaction between galectin and a fluorescein tagged saccharide probe
Metric Name: Kd (nM)
Enter your answer as a number in nM; do not include the unit.

Inquiry: For Galectin-3 (Homo sapiens), provide Kd of COC1[C@@H](Sc2cc(Cl)cnc2C(=O)N2CCC2)OC(CO)[C@H](O)[C@@H]1n1cc(-c2cc(F)c(F)c(F)c2)nn1 (stereo not given in full) please.
Reply text: 10

###

# Assay Target: Galectin-3 (Homo sapiens)
# Assay Summary: Fluorescence Anisotropy Assay: The affinity of Example 1-71 for galectins were determined by a fluorescence anisotropy assay where the compound was used as an inhibitor of the interaction between galectin and a fluorescein tagged saccharide probe
Metric Name: pKd
Entry type: numeric. Quantity: pKd, the -log10 of concentration in molar units.

Would you please look over these solved cases?
Compound | pKd
COC1[C@@H](Sc2cc(Cl)cnc2C(=O)N2CCC2)OC(CO)[C@H](O)[C@@H]1n1cc(-c2cc(F)c(Cl)c(F)c2)nn1 (some centres undefined) | 7.80
CCOC1[C@@H](Sc2cc(Cl)cnc2C(=O)N2CCC2)OC(CO)[C@H](O)[C@@H]1n1cc(-c2cc(F)c(F)c(F)c2)nn1 (some centres undefined) | 7.68
CCOC1[C@@H](Sc2cc(Cl)cnc2C(=O)N2CCC2)OC(CO)[C@H](O)[C@@H]1n1cc(-c2cc(F)c(Cl)c(F)c2)nn1 (some centres undefined) | 7.96

As a next step, examine the compound that follows.
Inquiry: For Galectin-3 (Homo sapiens), provide pKd of COC1[C@@H](Sc2cc(Cl)cnc2C(=O)N2CCC2)OC(CO)[C@H](O)[C@@H]1n1cc(-c2ccc(Cl)c(F)c2)nn1 (some centres undefined) please.
Reply text: 7.68
